- Target Or Test System: T1, CD28 endogenously expressed on Jurkat/IL2 reporter cells (human, UniProt P10747 19-220)
- T1 construct: also called Jurkats (CD28)
- Experiment Description: flow cytometry, Jurkat cells (CD28)
Cut-off 500 MFI on MFI at 33.3 nM: below means criterion met, at or above means criterion not met.

Sample answers from the record:
// query # TODO verify MFI at 33.3 nM < 500 MFI strictly for this binder: variant CD80 IgV-Fc D46V/V68M (Fc fusion, not shown: small tags and cut ends; a dimerising Fc or GST) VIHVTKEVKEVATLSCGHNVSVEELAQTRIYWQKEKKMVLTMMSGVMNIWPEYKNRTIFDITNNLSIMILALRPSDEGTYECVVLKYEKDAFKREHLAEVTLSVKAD
// result criterion not met

// query # TODO verify MFI at 33.3 nM < 500 MFI strictly for this binder: variant CD80 IgV-Fc N48K (Fc fusion, not shown: small tags and cut ends; a dimerising Fc or GST) VIHVTKEVKEVATLSCGHNVSVEELAQTRIYWQKEKKMVLTMMSGDMKIWPEYKNRTIFDITNNLSIVILALRPSDEGTYECVVLKYEKDAFKREHLAEVTLSVKAD
// result criterion met

// query # TODO verify MFI at 33.3 nM < 500 MFI strictly for this binder: variant CD80 IgV-Fc M47V (Fc fusion, not shown: small tags and cut ends; a dimerising Fc or GST) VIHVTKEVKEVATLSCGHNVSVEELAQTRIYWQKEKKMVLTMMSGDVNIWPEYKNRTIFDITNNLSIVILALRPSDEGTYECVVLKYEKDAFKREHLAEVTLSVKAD
// result criterion met

// query # TODO verify MFI at 33.3 nM < 500 MFI strictly for this binder: variant CD80 IgV-Fc D46V/M47L/V68M (Fc fusion, not shown: small tags and cut ends; a dimerising Fc or GST) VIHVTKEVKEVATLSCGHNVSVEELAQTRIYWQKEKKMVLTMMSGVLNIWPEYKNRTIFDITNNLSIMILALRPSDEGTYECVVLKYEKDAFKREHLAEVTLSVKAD
// result criterion not met

// query # TODO verify MFI at 33.3 nM < 500 MFI strictly for this binder: variant CD80 IgV-Fc M47V/V68M (Fc fusion, not shown: small tags and cut ends; a dimerising Fc or GST) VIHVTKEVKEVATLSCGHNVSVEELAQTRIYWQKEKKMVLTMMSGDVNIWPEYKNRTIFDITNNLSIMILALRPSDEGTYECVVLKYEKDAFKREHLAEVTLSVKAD
// result criterion met

// query # TODO verify MFI at 33.3 nM < 500 MFI strictly for this binder: variant CD80 IgV-Fc K89N (Fc fusion, not shown: small tags and cut ends; a dimerising Fc or GST) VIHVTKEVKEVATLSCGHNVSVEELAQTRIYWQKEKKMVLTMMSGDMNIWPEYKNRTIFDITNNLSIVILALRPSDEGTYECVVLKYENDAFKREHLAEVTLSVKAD
// result criterion met

New cases:
// query # TODO verify MFI at 33.3 nM < 500 MFI strictly for this binder: variant CD80 IgV-Fc E35D/V68M/L85Q (Fc fusion, not shown: small tags and cut ends; a dimerising Fc or GST) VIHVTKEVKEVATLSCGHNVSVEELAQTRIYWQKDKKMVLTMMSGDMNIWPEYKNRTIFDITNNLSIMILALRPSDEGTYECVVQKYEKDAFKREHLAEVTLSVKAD
// result criterion met

// query # TODO verify MFI at 33.3 nM < 500 MFI strictly for this binder: variant CD80 IgV-Fc D46V/L85Q (Fc fusion, not shown: small tags and cut ends; a dimerising Fc or GST) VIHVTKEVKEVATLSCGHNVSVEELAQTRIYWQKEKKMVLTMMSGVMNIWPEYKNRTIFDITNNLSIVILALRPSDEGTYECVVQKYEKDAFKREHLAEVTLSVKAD
// result criterion met

// query # TODO verify MFI at 33.3 nM < 500 MFI strictly for this binder: variant CD80 IgV-Fc E35D/D46V/M47L/V68M/L85Q (Fc fusion, not shown: small tags and cut ends; a dimerising Fc or GST) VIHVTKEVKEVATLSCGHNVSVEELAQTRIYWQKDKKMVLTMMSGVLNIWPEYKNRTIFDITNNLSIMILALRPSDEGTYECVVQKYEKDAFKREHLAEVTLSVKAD
// result criterion met
